Origin of measurements: ChEMBL document CHEMBL3885861

# Species: Rattus norvegicus
# EXPERIMENTAL_PROTOCOL: Open TG-GATES - Regimen: Single
# Format: toxicity, organism-based, Sprague-Dawley
# Parameters: regimen Single, gender Male, age 6 weeks
# CONDITIONS: in vivo, po, 300 mg/kg, 24 h, tissue Blood, route gavage, dose level Middle
RECORDED_ENDPOINT: APTT (s)
The reply should be a number in s, with the unit left off.

Query :: Read the entry `NC(N)=Nc1nc(CSCCC(N)=NS(N)(=O)=O)cs1` and write its reported APTT.
Result :: 20.8

Query :: Read the entry `COC1=CC(=O)C[C@@H](C)[C@]12Oc1c(Cl)c(OC)cc(OC)c1C2=O` and write its reported APTT.
Result :: 18.9

Query :: Read the entry CCOC(=O)CCC(=O)O[C@H]1[C@H](O[C@@H]2[C@@H](C)[C@H](O[C@H]3C[C@@](C)(OC)[C@@H](O)[C@H](C)O3)[C@@H](C)C(=O)O[C@H](CC)[C@@](C)(O)[C@H](O)[C@@H](C)C(=O)[C@H](C)C[C@@]2(C)O)O[C@H](C)C[C@@H]1N(C)C [ERYTHROMYCIN ETHYLSUCCINATE] and write its reported APTT.
Result :: 20.4

Query :: Read the entry COc1ccc2[nH]c([S+]([O-])Cc3ncc(C)c(OC)c3C)nc2c1 (centres undefined) and write its reported APTT.
Result :: 20.6

* * *

# Species: Rattus norvegicus
# EXPERIMENTAL_PROTOCOL: Open TG-GATES - Regimen: Single
# Format: toxicity, organism-based, Sprague-Dawley
# Design: regimen Single, gender Male, age 6 weeks
# CONDITIONS: in vivo, po, 1000 mg/kg, 9 h, route gavage, dose level High
# key: entry, value: TERMINAL_BW
The reply should be a number in g, with the unit left off.

# COMPOUND, U, TERMINAL_BW
measured = [
    ("NC(N)=Nc1nc(CSCCC(N)=NS(N)(=O)=O)cs1", "g", 211.3),
]

Query :: Read the entry `COC1=CC(=O)C[C@@H](C)[C@]12Oc1c(Cl)c(OC)cc(OC)c1C2=O` and write its reported TERMINAL_BW.
Result :: 207.4

Query :: Read the entry COc1ccc2[nH]c([S+]([O-])Cc3ncc(C)c(OC)c3C)nc2c1 (centres undefined) and write its reported TERMINAL_BW.
Result :: 219.2

Query :: Read the entry CCOC(=O)CCC(=O)O[C@H]1[C@H](O[C@@H]2[C@@H](C)[C@H](O[C@H]3C[C@@](C)(OC)[C@@H](O)[C@H](C)O3)[C@@H](C)C(=O)O[C@H](CC)[C@@](C)(O)[C@H](O)[C@@H](C)C(=O)[C@H](C)C[C@@]2(C)O)O[C@H](C)C[C@@H]1N(C)C [ERYTHROMYCIN ETHYLSUCCINATE] and write its reported TERMINAL_BW.
Result :: 213.4

* * *

# Species: Rattus norvegicus
# EXPERIMENTAL_PROTOCOL: Open TG-GATES - Regimen: Single
# Format: toxicity, organism-based, Sprague-Dawley
# Design: regimen Single, gender Male, age 6 weeks
# CONDITIONS: in vivo, po, 0 mg/kg, 9 h, tissue Blood, route gavage, dose level Control
Tick rule met if Mono is 2% or greater. Tick rule not met if Mono is less than 2%.

Query :: hey, is Mono for this one >= 2%? CCCNC(=O)NS(=O)(=O)c1ccc(Cl)cc1 [CHLORPROPAMIDE]
Result :: rule met
